molecular target: RIOK2 (Homo sapiens, UniProt Q9BVS4); construct: T7 phage fusion (kinase-tagged phage); assay: Kd select analysis (DiscoverX)
Sequence (Q9BVS4 whole entry, the tested form may be a part): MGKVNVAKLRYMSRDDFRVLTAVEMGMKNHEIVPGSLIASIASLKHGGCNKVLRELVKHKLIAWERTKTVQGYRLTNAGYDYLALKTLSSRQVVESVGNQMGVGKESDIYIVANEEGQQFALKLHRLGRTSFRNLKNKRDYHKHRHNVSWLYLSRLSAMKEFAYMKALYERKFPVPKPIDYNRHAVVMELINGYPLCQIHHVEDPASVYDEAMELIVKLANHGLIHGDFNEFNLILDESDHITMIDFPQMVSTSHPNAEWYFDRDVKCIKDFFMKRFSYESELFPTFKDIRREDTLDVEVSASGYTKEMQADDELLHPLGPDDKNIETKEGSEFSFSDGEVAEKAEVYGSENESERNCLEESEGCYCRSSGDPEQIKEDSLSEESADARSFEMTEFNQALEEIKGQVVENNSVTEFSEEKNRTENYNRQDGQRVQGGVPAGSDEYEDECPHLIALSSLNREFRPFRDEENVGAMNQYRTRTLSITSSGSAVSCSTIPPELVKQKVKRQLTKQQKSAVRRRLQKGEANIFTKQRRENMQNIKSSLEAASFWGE
measurement.name: Kd (nM)
One number for each entry, in nM.

Given the entry Nc1ccc(N=Nc2ccccc2)c(N)n1 [phenazopyridine, 2,6-diamino-3-(phenylazo)pyridine] , what Kd was observed with RIOK2 (Homo sapiens, UniProt Q9BVS4)?
1000

* * *

target: PI4KB (Homo sapiens); construct: T7 phage fusion (kinase-tagged phage); purchased DiscoverX; host or cells: BL21-derived E. coli (T7 phage); test: Kd select analysis (DiscoverX); type: binding; details: sub-micromolar affinity, read-out: Kd
Sequence (Q9UBF8 whole entry, the tested form may be a part): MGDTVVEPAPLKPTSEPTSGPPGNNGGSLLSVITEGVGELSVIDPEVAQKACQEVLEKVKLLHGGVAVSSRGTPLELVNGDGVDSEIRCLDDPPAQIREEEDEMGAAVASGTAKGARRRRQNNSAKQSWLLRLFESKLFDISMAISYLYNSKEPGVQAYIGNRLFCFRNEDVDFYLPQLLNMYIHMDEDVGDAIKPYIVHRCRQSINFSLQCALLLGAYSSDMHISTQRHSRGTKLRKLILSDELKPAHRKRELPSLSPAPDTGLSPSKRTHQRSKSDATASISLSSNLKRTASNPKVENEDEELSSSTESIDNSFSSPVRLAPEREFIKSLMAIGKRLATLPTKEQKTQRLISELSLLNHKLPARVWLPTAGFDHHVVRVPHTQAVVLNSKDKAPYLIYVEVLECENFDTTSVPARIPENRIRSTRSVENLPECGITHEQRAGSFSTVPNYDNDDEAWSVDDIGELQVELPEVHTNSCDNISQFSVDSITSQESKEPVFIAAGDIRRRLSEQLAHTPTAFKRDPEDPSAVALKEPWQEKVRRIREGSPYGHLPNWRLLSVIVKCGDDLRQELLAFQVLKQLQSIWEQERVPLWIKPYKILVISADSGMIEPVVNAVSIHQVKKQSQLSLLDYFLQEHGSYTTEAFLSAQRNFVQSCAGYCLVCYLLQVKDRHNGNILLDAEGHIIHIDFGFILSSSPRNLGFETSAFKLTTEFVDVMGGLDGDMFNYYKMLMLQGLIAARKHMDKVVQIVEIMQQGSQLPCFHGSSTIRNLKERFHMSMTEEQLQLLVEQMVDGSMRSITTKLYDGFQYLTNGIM
measurement.name: Kd

I'd like to know its Kd. The compound in question is Nc1ccc(N=Nc2ccccc2)c(N)n1 [phenazopyridine, 2,6-diamino-3-(phenylazo)pyridine]
< 1 µM
